tested on: UACC-62 melanoma; assay: NCI tumour cell line growth inhibition, 48 h

# Compound, TGI
data = [
    ("CCOC(=O)c1c[nH]c2oc(/C=N/N3CC(CN4CCOCC4)OC3=O)cc2c1=O (stereo not given)", "> 100 µM"),
    ("CC(=O)O[C@H]1C#C/C=C\\C#CC[C@@H]2C(=O)N[C@@H]12", "> 100 µM"),
    ("Cc1ccc([C@H]2CC(=O)C[C@H](c3ccc(C)cc3)C23C(=O)c2ccccc2C3=O)cc1", "> 100 µM"),
    ("O=C(O)CC[N+]1=CCC(c2ccccc2)(c2ccccc2)O1", "> 100 µM"),
    ("CC(C)CCCC(C)[C@H]1CCC2[C@H]3C(CC[C@@]21C)[C@@]1(C)CCC=C[C@]12C[C@@H]2[C@@H]3O (stereo not given in full)", "> 100 µM"),
    ("O=C1CCCCC(=O)OC2(CCCCC2=O)CC1 (stereo not given)", "> 100 µM"),
    ("CCOC(=O)/C=C(/C(=O)OCC)n1ccc(N)nc1=O", "> 100 µM"),
    ("Cc1cc[c-]cc1.Fc1c[c-]c(-c2ccccn2)c(F)c1.[Pt+2].c1ccc(P(C[PH+](c2ccccc2)c2ccccc2)c2ccccc2)cc1", "9.31 µM"),
    ("CC1Cn2c(nc3ccccc32)NC1=O (stereo not given)", "> 100 µM"),
    ("CCN1C(=O)C(=C/C=C/c2ccc([N+](=O)[O-])cc2)C(=O)N(CC)C1=S", "34.7 µM"),
]

----------
system: OVCAR-4 ovarian; test: NCI tumour cell line growth inhibition, 48 h
Metric name: TGI

# Molecule, Observed measurement
measured = [
    ("Cc1ccc(-c2cc(N)n(-c3nc4c(c(=O)n(C)c(=O)n4C)n3C)n2)cc1", "> 100 µM"),
    ("N#Cc1c(-c2ccccc2)nc(-c2ccccc2)sc1=S", "> 100 µM"),
    ("COc1ccc(-c2oc3cc(O)c(OC)c(O)c3c(=O)c2OC)cc1O", "> 100 µM"),
    ("Oc1cc(C2OCCCO2)cc(O)c1O", "> 100 µM"),
    ("COc1ccc(OC)c2c(/C=C/c3ccc(N(C)C)cc3)ccnc12", "> 10 µM"),
    ("O=c1[nH]cnc2cccc(Cl)c12", "> 100 µM"),
    ("C=CCNC(=O)N(CCC)CCCCC(NC(C)=O)C(=O)NCc1ccccc1 (configuration not stated)", "> 100 µM"),
    ("COc1cc(Nc2c3ccccc3nc3ccccc23)ccc1NS(C)(=O)=O", "12.3 µM"),
    ("CC(=O)Nc1cc2c(s1)CCC1CC(=O)NN=C21 (configuration not stated)", "> 100 µM"),
    ("C=C1C(=O)O[C@H]2[C@H]1CC/C(COC(=O)c1ccc(Cl)nc1)=C\\CC[C@@]1(C)O[C@@H]21", "18.4 µM"),
    ("CCOC(=O)c1c[nH]c2oc(/C=N/N3CC(CN4CCOCC4)OC3=O)cc2c1=O (configuration not stated)", "> 100 µM"),
    ("N#C/C(=C\\n1ccc(=O)[nH]c1=S)C(N)=O", "> 100 µM"),
    ("N#Cc1nc(-c2cccs2)oc1N", "> 100 µM"),
    ("O=C(/C=C/c1cc(CN2CCOCC2)c(O)c2ncccc12)c1cc(CN2CCOCC2)c(O)c2ncccc12", "> 100 µM"),
    ("COC(=O)C1=CC(=O)OC1(OO)c1ccccc1 (configuration not stated)", "> 100 µM"),
    ("NC1=NS(=O)(=O)Nc2nc(-c3ccc([N+](=O)[O-])cc3)[nH]c21", "> 100 µM"),
    ("CC(=O)c1sc(-c2nc(C)c(C(=O)/C=C\\c3ccc(/C=C\\C(=O)c4sc(-c5nc(C)c(C(C)=O)s5)nc4C)cc3)s2)nc1C", "> 100 µM"),
    ("O=c1[nH]nc(Cc2ccc([N+](=O)[O-])cc2)n1CCO", "> 100 µM"),
    ("C=CCCC(=O)CC(O)(C(F)(F)F)C(F)(F)F", "> 100 µM"),
    ("CCCCC1(CN2CCOCC2)S/C(=N/c2nc(CC(=O)OCC)cs2)NC1=O (configuration not stated)", "> 100 µM"),
    ("C1C[OH+]CCNCC[OH+]CC[OH+]CCN1.[Cl-].[Pt+4]", "> 100 µM"),
    ("CC(=O)c1ccc2c3c1[C@@H]1O[C@@H]1c1cccc(c1-3)[C@@H]1O[C@H]21", "27.3 µM"),
]

----------
test system: CCRF-CEM leukemia; assay: NCI tumour cell line growth inhibition, 48 h
compounds and their reported GI50
Metric name: GI50

# Cpd smiles, Target or test system, Observed measurement
measured = [
    ("O=C(/C=C/c1cc(CN2CCOCC2)c(O)c2ncccc12)c1cc(CN2CCOCC2)c(O)c2ncccc12", "CCRF-CEM leukemia", "0.05 µM"),
    ("[Au+].[Au+].[Au+].[c-]1nccn1Cc1ccccc1.[c-]1nccn1Cc1ccccc1.[c-]1nccn1Cc1ccccc1", "CCRF-CEM leukemia", "3.71 µM"),
    ("C[C@]12CCc3nc(Nc4ccccc4)sc3C1=CC[C@@H]1[C@@H]2CC[C@]2(C)/C(=N/NC(N)=S)CC[C@@H]12", "CCRF-CEM leukemia", "1.98 µM"),
    ("O=C(CSC(c1ccccc1)c1ccccc1)N/N=C/c1ccc(Cl)cc1Cl", "CCRF-CEM leukemia", "31.5 µM"),
]

----------
molecules and their reported TGI
system: HCT-116 colon; test: NCI tumour cell line growth inhibition, 48 h

# Molecule, TGI
rows = [
    ("N#CC(=NCCO)C1=C(O)c2ccccc2C1=O", "> 100 µM"),
    ("[Au+].[Au+].[Au+].[c-]1nccn1Cc1ccccc1.[c-]1nccn1Cc1ccccc1.[c-]1nccn1Cc1ccccc1", "18.6 µM"),
    ("CC1CCC(=O)C(C(=O)CC2CC(=O)NC(=O)C2)C1 (stereo unspecified)", "> 100 µM"),
    ("CC(C)CNC(=O)O", "> 100 µM"),
    ("COC(=O)/C(C#N)=C1\\CCC(O)N1 (stereo unspecified)", "> 100 µM"),
    ("CC1=COC(C)(C=C(C#N)C#N)CC1 (stereo unspecified)", "> 100 µM"),
    ("O=c1oc2ccccc2c(Nc2ccc3c(c2)Oc2ccccc2O3)c1[N+](=O)[O-]", "> 100 µM"),
    ("CN(CCCNC(=O)Cc1ccc2ccc3cccc4ccc1c2c34)CCCNc1cc(-c2ccc3ccccc3c2)nc2ccccc12", "1.28 µM"),
    ("O=C(/C=C/c1cc(CN2CCOCC2)c(O)c2ncccc12)c1cc(CN2CCOCC2)c(O)c2ncccc12", "> 100 µM"),
    ("Cc1[nH]c(=O)[nH]c(=O)c1/C=C/C(=O)O", "> 1000 µM"),
    ("O=C(Nc1ccc(-c2ccccc2)cc1)C1CCN(S(=O)(=O)c2ccccc2Cl)CC1", "> 100 µM"),
]

----------
system: RPMI-8226 leukemia; assay: NCI tumour cell line growth inhibition, 48 h
compounds and their reported TGI

# Compound, TGI
rows = [
    ("Cc1ccc(C2(O)CC(c3ccc([N+](=O)[O-])o3)=NN2C(=O)COc2ccc(Cl)cc2)cc1 (stereo not given)", "> 21.2 µM"),
    ("CCC(C)(C)c1ccc(OCCCCCCN2CCNCC2)cc1", "4.41 µM"),
    ("O=c1[nH]nc(Cc2ccc([N+](=O)[O-])cc2)n1CCO", "> 100 µM"),
    ("O=c1c2ncn(COCCCl)c2n(-c2ccccc2)c(=S)n1-c1ccccc1", "> 100 µM"),
    ("C[C@]12CC[C@@H]3c4ccc(O)cc4CC[C@H]3[C@@H]1CC[C@@H]2NS(=O)(=O)c1cccc(F)c1", "19.6 µM"),
    ("O=C(O)c1ccc(S(=O)(=O)c2ccccc2[N+](=O)[O-])cc1", "> 10 µM"),
    ("CC1Cn2c(nc3ccccc32)NC1=O (stereo not given)", "> 100 µM"),
    ("N#Cc1c(-c2ccccc2)nc(-c2ccccc2)sc1=S", "> 100 µM"),
    ("Oc1cc(C2OCCCO2)cc(O)c1O", "> 100 µM"),
    ("O=c1[nH]c2cc(Cl)ccc2nc1/C(=N\\O)C(O)c1ccc(Cl)cc1Cl (stereo not given)", "> 100 µM"),
    ("COc1ccc(/C(Cl)=C(\\C=O)c2ccc(F)cc2)cc1OC", "46.3 µM"),
    ("CC1=NN(C(=O)CC(=O)N(C(=O)c2ccccc2Cl)c2ccc(C)cc2)C(=O)C1N=Nc1ccc([N+](=O)[O-])cc1 (stereo not given)", "> 70.3 µM"),
    ("CC(C)CCCC(C)[C@H]1CCC2[C@H]3C(CC[C@@]21C)[C@@]1(C)CCC=C[C@]12C[C@@H]2[C@@H]3O (stereo not given in full)", "> 100 µM"),
    ("CC(C)CNC(=O)O", "> 100 µM"),
    ("CCC1(C(=O)OC(C)(C)C)OC12C(C)CCCC2C (stereo not given)", "49.9 µM"),
    ("O=C1[C@H]2ON(c3ccccc3)C(c3ccc(Cl)cc3)[C@H]2C(=O)N1c1ccc(Cc2ccc(N3C(=O)[C@@H]4ON(c5ccccc5)C(c5ccc(Cl)cc5)[C@@H]4C3=O)cc2)cc1 (stereo not given in full)", "> 100 µM"),
    ("Cc1ccc(/C(O)=C/C(=O)C(=O)/C=C(\\O)c2ccc(C)cc2C)c(C)c1", "4.59 µM"),
    ("CCn1c(CO)nn(-c2cc(O[C@@H](C)C(F)(F)F)c(C(=O)Nc3c(F)cccc3Cl)cc2F)c1=O", "> 62.2 µM"),
    ("CC12CCCCC1(C)C2Sc1ccccc1 (stereo not given)", "40.3 µM"),
    ("O=C(OCC1OC2OC(c3ccccc3)(n3ccc4c([N+](=O)[O-])ccnc43)OC2C1OC(=O)c1ccccc1)c1ccccc1 (stereo not given)", "> 100 µM"),
]
